Measured values drawn from ChEMBL document CHEMBL1201862 for this set.

Active and inactive are the calls of the source.
Cytochrome P450 2C9 (Homo sapiens, UniProt P11712): reported AC50 for various compounds.
Sequence (P11712 whole entry): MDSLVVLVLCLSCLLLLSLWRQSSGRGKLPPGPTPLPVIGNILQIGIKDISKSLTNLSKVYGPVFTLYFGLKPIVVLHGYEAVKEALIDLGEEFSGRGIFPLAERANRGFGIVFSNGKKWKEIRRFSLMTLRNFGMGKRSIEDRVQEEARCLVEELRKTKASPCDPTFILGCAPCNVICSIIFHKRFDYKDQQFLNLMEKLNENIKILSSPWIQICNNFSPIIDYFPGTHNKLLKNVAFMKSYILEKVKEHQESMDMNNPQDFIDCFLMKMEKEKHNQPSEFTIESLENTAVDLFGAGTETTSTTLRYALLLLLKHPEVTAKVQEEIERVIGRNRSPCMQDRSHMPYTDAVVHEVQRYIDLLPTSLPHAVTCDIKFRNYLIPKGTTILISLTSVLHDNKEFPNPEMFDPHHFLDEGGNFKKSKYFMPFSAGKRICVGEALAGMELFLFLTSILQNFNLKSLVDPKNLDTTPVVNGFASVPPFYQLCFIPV

Example cases with answers are listed next.
N#Cc1cnn2c(=O)c3c([nH]c12)CCCC3
11.2 µM (inconclusive)
COc1ccc(/C=C2\N=C(c3c(-c4ccccc4)noc3C)OC2=O)cc1OC
1 µM (inconclusive)
Cn1c(=O)c(-c2ccccc2)nc2cnc(Oc3ccccc3)nc21
12.6 µM (inconclusive)
CC[C@H]1C2=C3C(CC[C@H]4C(OCc5ccc(F)cc5C(F)(F)F)OC[C@](C)([C@@H]34)N(C(=O)OC(C)(C)C)C2)C(COC(C)=O)C1COC(C)=O (some centres not stated)
31.6 µM (inconclusive)
Clc1ccc(-c2nnc(CCc3ccccc3)o2)c(Cl)c1
39.8 µM (inconclusive)
Cn1c(=O)c2cn(-c3ccccc3)cc2n(C)c1=O
25.1 µM (inconclusive)

Recall and state the measured AC50 for CCN(CC)S(=O)(=O)c1cccc(C(=O)N[C@H](C(=O)OCC(=O)NC(=O)NC)C(C)C)c1 .
0.708 µM (inconclusive)

Recall and state the measured AC50 for O=C(CCn1nc(-c2ccc(Cl)cc2)ccc1=O)N1CCOCC1 .
10 µM (inconclusive)

Recall and state the measured AC50 for CC(C)n1nnnc1SCC(=O)c1ccc2c(c1)OCCO2 .
17.8 µM (inconclusive)

Recall and state the measured AC50 for CC(C)[C@@]1(NC(=O)[C@@H]2C[C@H]3c4cccc5[nH]cc(c45)C[C@@H]3N(C)C2)O[C@]2(O)[C@H]3CCCN3C(=O)CN2C1=O .
6.31 µM (inconclusive)

Recall and state the measured AC50 for COc1cc(N)c(Cl)cc1C(=O)N[C@H]1CCN(CCCOc2ccc(F)cc2)C[C@@H]1OC .
1 µM (active)

Recall and state the measured AC50 for N/C(S)=N/CCC[C@@H](N)C(=O)O .
15.8 µM (inconclusive)

====

Target: fMet-Leu-Phe receptor (Homo sapiens, UniProt P21462)
Sequence (P21462 whole entry): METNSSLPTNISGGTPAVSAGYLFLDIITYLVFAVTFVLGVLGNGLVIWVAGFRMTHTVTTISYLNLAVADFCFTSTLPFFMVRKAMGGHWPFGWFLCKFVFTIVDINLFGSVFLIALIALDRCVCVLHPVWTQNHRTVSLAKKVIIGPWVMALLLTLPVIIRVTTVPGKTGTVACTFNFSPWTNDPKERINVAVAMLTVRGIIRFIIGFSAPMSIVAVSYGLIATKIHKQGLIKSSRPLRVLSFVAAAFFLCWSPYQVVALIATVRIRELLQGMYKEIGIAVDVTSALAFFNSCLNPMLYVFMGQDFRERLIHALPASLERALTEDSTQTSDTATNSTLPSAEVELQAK
Assay: formyl peptide receptor binders – dose response (AID 519)
Type: functional
Active and inactive are the calls of the source.
Reported Ki values follow for various molecules

Cc1ccc(C(=O)C2=C(O)C(=O)N(c3cc(C)on3)C2c2cccc(Br)c2)cc1 (centres undefined)
> 66.7 µM (inactive)
CCOC(=O)CSc1nnc(CNC(=O)c2cc(OCC)c(OCC)c(OCC)c2)n1C
> 66.7 µM (inactive)
Cc1nc2c(C#N)cnn2c(O)c1Cc1ccccc1
27.4 µM (inactive)

In the following, a different molecule is considered.
Recall and state the measured Ki for CC1Cc2cc(C(=O)C3=C(O)C(=O)N(CCN4CCOCC4)C3c3ccccc3F)ccc2O1 (centres undefined) .
> 66.7 µM (inactive)

====

Reported EC50 values follow for various molecules
Tested on: Streptococcus sp. 'group A'
Assay: Streptococcus pyogenes SK(-)GAS viability under kanamycin – luminescence, BacTiterGlo, confirmation, counter-screen for streptokinase expression inhibitor project, dose response (AID 1900)
Assay type: functional, organism-based
Conditions: read-out: EC50
Calls of active or inactive are those of the source.

Recall and state the measured EC50 for Cc1csc2c(N3CCN(C(=O)Nc4ccc(Cl)c(Cl)c4)CC3)ncnc12 .
3.4 µM (active)

Recall and state the measured EC50 for Cc1cccc(Nc2nc(N)nc(CN3CCN(c4ccccc4F)CC3)n2)c1 .
7.31 µM (active)

Recall and state the measured EC50 for Oc1nc2ccc(Cl)cc2c(-c2ccccc2)c1SC(=S)N1CCOCC1 .
0.827 µM (active)

Recall and state the measured EC50 for O=C1C=C(N2CCCCC2)c2ccccc2C1=O .
1.88 µM (active)

Recall and state the measured EC50 for CCOC(=O)Nc1ccc(OCc2nnc3c4ccccc4c(C)nn23)cc1 .
< 0.06 µM (active)

Recall and state the measured EC50 for CCc1ccc(CN(C)Cc2nc(-c3cccc(Cl)c3)no2)nc1 .
18.4 µM (active)

Recall and state the measured EC50 for Cc1cc(C)c2ccc(N)nc2c1O .
3.15 µM (active)

Recall and state the measured EC50 for O=C(CSc1nc(O)c2cnn(-c3ccccc3)c2n1)N1N=C(c2cccs2)CC1c1ccc(F)cc1 (stereo not drawn) .
3.15 µM (active)

====

Molecular target: Trace amine-associated receptor 1 (Homo sapiens);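 further: inhibition of calcium response to PEA at EC80 in Galpha16 coupled cells measured by Fluo-8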
Sequence (Q96RJ0 whole entry): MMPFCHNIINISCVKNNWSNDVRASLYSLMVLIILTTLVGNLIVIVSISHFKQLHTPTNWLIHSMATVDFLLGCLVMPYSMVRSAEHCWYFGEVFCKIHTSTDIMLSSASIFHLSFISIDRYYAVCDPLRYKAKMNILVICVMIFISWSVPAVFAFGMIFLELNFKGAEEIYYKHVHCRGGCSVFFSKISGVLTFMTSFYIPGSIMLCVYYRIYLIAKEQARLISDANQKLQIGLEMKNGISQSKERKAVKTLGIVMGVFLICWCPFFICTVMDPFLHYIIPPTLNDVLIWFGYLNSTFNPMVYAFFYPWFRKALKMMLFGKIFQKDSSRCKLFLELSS
Assay: Counterscreen for agonists of the human trace amine associated receptor 1 (hTAAR1): Fluorescence-based cell-based high throughput dose response assay to identify hTAAR1 agonist that also desensitize TAAR1 receptor response.
Assay type: functional
Active and inactive are the calls of the source.
Reported IC50 values follow for various compounds

CN1C(=O)NC(c2ccccc2)C2=C1CN(CCc1ccccc1)C2=O (stereo unspecified)
5.74 µM (active)

Recall and state the measured IC50 for CNCCc1ccccn1 .
6.02 µM (active)

Recall and state the measured IC50 for Cc1cc(C(=O)CN2C(=O)C(=O)N(C3CCCC3)C2=O)c(C)n1CCc1ccccc1 .
3.28 µM (active)

Recall and state the measured IC50 for COc1cccc(Nc2nc(C(N)COCc3ccccc3)cs2)n1 (stereo unspecified) .
8.79 µM (active)

Recall and state the measured IC50 for O=C(N/N=C/c1ccc(O)c(O)c1)N/N=C/c1ccc(O)c(O)c1 .
> 9.97 µM (active)

Recall and state the measured IC50 for c1ccc(CCNc2ncnc3[nH]cnc23)cc1 .
8.92 µM (active)

====

Biological target: Orexin/Hypocretin receptor type 1 (Homo sapiens, UniProt O43613)
Sequence (O43613 whole entry): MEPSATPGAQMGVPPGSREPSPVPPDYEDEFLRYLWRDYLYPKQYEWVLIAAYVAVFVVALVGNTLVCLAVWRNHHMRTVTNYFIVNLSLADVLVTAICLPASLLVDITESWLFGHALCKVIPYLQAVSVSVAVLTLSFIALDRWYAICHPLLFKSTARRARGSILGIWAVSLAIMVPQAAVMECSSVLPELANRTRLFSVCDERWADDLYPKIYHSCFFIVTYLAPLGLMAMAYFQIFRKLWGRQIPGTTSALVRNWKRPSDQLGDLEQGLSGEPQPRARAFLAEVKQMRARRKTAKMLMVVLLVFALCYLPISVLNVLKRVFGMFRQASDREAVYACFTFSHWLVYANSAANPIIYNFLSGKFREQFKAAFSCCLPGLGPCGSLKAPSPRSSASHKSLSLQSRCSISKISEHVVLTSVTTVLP
Experiment: Fluorescence-based cell-based high throughput dose response assay for antagonists of the orexin 1 receptor (OX1R; HCRTR1). [Related pubchem assays (depositor defined):AID434989, AID435008, AID463079, AID485270, AID492963, AID492964, AID492965, AID493232, AID504717, AID504718]
Format: functional
Activity calls are given as the source filed them.
Form entry, call: pick from true (1) for active, false (0) for inactive

For orientation, consider the following solved cases.
CN(Cc1ccccc1)C(=O)c1[nH]cnc1C(=O)N[C@@H](Cc1ccccc1)C(=O)OC(C)(C)C
true (1)
O=c1cc(CN2CC(O)Cc3ccc4ccccc4c32)nc2sccn12 (stereo not given)
true (1)
Cc1cc(O)cc2c(=O)c3ccccc3sc12
true (1)

In this assay, the call recorded for CCCCNC(=O)CCC(=O)NNc1nc2ccccc2c2nc(-c3ccccc3)nn12 was what?
true (1)

In this assay, the call recorded for Cc1csc(-c2coc3cc(O)cc(C)c3c2=O)n1 was what?
false (0)

====

Biological target: Heat shock protein HSP 90-alpha (Homo sapiens)
Format: functional, organism-based
Activity calls are given as the source filed them.
readoutLabel: AC50

Recall and state the measured AC50 for CN1CCN(C(c2ccc(Br)cc2)c2cc(Cl)c3cccnc3c2O)CC1 (stereo unspecified) .
609 nM (active)

Recall and state the measured AC50 for COc1ccc(S(=O)(=O)N(C(=O)c2ccncc2)c2ccc(OC(=O)c3ccncc3)cc2)cc1 .
1650 nM (active)

Recall and state the measured AC50 for CCOC(=O)c1ccc(N2C(=O)C=CC2=O)cc1 .
691 nM (active)

Recall and state the measured AC50 for Oc1ccc(N=Nc2c(O)ccc3ccccc23)cc1 .
5610 nM (active)

Recall and state the measured AC50 for CCC(C)n1ncn(-c2ccc(N3CCN(c4ccc(OCC5COC(Cn6cncn6)(c6ccc(Cl)cc6Cl)O5)cc4)CC3)cc2)c1=O (stereo unspecified) .
< 195 nM (active)

Recall and state the measured AC50 for COc1cc2c(cc1/C=C/[N+](=O)[O-])OCO2 .
4250 nM (active)

====

Tested on: INS1
Assay: INS-1E survival protection against cytokine death – cell-based, luminescence, retest, dose response (AID 449756);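 further: cell death triggered by IL-1 beta plus TNF-alpha plus IFN-gamma mixture; protective hits raise ATP signal compared with cytokine alone wells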
Format: functional
Settings: Rattus norvegicus
Calls of active or inactive are those of the source.
readoutLabel: AC50

Example cases with answers are listed next.
COc1cc(SC#N)ccc1/N=C/c1c(C)[nH]n(-c2ccc(C)cc2)c1=O
3.6 µM (active)
O=C(N/N=C(\Cc1ncc[nH]1)c1ccccc1)c1ccncc1
7.38 µM (active)
CCCCCCSc1ccc([C@H]2N[C@@](Cc3ccccc3)(C(=O)OC)[C@H]3C(=O)N(C)C(=O)[C@@H]23)cc1
14.1 µM (active)

In the following, a different compound is considered.
Recall and state the measured AC50 for O=C(Oc1c(CN2CCOCC2)cc(Cl)c2cccnc12)c1cccs1 .
4.67 µM (active)

====

Target: Sentrin-specific protease 6 (Homo sapiens)
Sequence (Q9GZR1 whole entry): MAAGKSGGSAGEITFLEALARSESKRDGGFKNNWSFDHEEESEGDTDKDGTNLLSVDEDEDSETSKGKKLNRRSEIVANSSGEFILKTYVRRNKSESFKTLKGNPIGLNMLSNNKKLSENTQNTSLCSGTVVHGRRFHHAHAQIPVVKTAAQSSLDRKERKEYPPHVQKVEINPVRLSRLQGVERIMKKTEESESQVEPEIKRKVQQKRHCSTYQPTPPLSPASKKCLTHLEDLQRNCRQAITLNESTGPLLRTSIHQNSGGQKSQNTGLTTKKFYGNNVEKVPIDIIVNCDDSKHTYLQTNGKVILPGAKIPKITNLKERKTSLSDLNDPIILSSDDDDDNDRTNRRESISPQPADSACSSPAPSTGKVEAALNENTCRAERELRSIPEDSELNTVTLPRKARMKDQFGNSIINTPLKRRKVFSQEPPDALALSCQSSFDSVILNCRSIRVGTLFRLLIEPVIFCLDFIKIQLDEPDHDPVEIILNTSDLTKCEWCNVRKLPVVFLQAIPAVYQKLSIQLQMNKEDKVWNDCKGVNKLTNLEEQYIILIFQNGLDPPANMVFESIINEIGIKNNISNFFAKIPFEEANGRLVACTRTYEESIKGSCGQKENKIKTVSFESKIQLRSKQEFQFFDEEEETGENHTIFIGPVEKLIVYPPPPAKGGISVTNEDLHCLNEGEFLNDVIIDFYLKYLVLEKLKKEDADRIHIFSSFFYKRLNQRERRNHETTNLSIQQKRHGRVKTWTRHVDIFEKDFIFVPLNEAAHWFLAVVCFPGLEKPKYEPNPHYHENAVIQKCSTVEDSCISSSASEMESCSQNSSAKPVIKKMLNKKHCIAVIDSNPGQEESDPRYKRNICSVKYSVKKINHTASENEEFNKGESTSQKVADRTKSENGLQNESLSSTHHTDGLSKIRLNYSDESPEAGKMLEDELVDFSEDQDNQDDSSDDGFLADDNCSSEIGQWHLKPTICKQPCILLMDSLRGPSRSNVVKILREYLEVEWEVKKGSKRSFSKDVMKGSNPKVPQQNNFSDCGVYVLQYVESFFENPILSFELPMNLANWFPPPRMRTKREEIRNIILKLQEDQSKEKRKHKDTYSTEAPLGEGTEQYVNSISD
Assay: SAR Analysis of small molecule inhibitors of Sentrin-specific protease 6 (SENP6) using a Luminescent assay. [Related pubchem assays (depositor defined):AID2582, AID2599]
Assay type: functional
Calls of active or inactive are those of the source.
Form entry, call: pick from class 1 = active, class 0 = inactive

For orientation, consider the following solved cases.
O=C(CCc1ccccc1)NNc1cc(N2CCCCC2)nc(N2CCCCC2)n1
class 1
CCN(CC)c1ccc(/C=N/Nc2nc(N3CCCC3)nc(N3CCCC3)n2)cc1
class 0

In this assay, the call recorded for COc1ccc(CCC(=O)Nc2ccc(-c3noc(/C=C/c4ccccc4)n3)cc2)cc1 was what?
class 0

In this assay, the call recorded for FC(F)(F)c1ccc(N/N=C/c2c[nH]c3ccccc23)cc1 was what?
class 0
